molecular target: human β-Secretase (soluble part, AA1-AA460; sBACE-Fc) (Homo sapiens); construct: The soluble part of the human β-Secretase (AA1-AA460) was cloned into the ASP2-Fc10-1-IRES-GFP-neoK mammalian expression vector; made in house; experiment: TR-FRET assay; assay type: biochemical; settings: substrate (Europium)CEVNLDAEFK(Qsy7) 100 nM, pH 4.5, 15 min at RT; read-out: IC50 (nM) in TR-FRET assay
readoutKind: IC50 (nM)
Respond with the bare value in nM.

{"molecule": "CCCS(=O)(=O)Oc1cccc(C2(c3ccc(F)c(-c4cc(Cl)cnc4F)c3)N=C(N)N(C)C2=O)c1 (stereo not shown)", "measuredTarget": "human β-Secretase (soluble part, AA1-AA460; sBACE-Fc) (Homo sapiens)", "IC50 [nM]": 352}
{"molecule": "COc1cc(OS(C)(=O)=O)cc(-c2cccc(C3(c4ccc(OC)c(C(F)(F)F)c4)N=C(N)N(C)C3=O)c2)c1 (stereo not shown)", "measuredTarget": "human β-Secretase (soluble part, AA1-AA460; sBACE-Fc) (Homo sapiens)", "IC50 [nM]": 25}
{"molecule": "CC(C)S(=O)(=O)Oc1cccc(C2(c3ccc(F)c(-c4cc(Cl)cnc4F)c3)N=C(N)N(C)C2=O)c1 (stereo not shown)", "measuredTarget": "human β-Secretase (soluble part, AA1-AA460; sBACE-Fc) (Homo sapiens)", "IC50 [nM]": 227}

// next entry
# value lookup — system human β-Secretase (soluble part, AA1-AA460; sBACE-Fc) (Homo sapiens), readout IC50, item CN1C(=O)C(c2ccc(OS(=O)(=O)C(F)(F)F)cc2)(c2ccc(F)c(-c3cncc(C#N)c3)c2)N=C1N (stereo not shown) 321

###

target: human β-Secretase (soluble part, AA1-AA460; sBACE-Fc) (Homo sapiens, UniProt P56817); construct: The soluble part of the human β-Secretase (AA1-AA460) was cloned into the ASP2-Fc10-1-IRES-GFP-neoK mammalian expression vector; made in house; test: TR-FRET assay; format: biochemical; conditions: substrate (Europium)CEVNLDAEFK(Qsy7) 100 nM, pH 4.5, 15 min at RT; read-out: IC50 (nM) in TR-FRET assay
Sequence (P56817 22-460): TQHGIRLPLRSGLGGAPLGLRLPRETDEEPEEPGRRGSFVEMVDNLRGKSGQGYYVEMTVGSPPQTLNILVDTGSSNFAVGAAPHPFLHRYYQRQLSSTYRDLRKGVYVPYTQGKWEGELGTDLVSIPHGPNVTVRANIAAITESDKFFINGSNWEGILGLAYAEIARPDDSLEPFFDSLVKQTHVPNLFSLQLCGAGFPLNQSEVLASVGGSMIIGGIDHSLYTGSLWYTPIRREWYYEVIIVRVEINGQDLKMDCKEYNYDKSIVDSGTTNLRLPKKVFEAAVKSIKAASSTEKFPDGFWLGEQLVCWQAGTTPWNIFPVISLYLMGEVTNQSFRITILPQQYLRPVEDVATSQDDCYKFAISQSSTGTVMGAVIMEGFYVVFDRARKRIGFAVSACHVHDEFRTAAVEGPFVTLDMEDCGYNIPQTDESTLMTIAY
Structures can show the parent of a compound that is named as a salt.
Measured IC50 values are reported for all entries that follow.
Respond with the bare value in nM.

Previously resolved entries follow.
{"molecule": "COc1cccc(-c2cc(C3(c4cccc(OS(C)(=O)=O)c4)N=C(N)N(C)C3=O)ccc2F)c1 (stereo not shown)", "IC50 / nM": 146}
{"molecule": "COc1cc(Cl)cc(-c2cc(C3(c4cccc(OS(C)(=O)=O)c4)N=C(N)N(C)C3=O)ccc2F)c1 (stereo not shown)", "IC50 / nM": 179}
{"molecule": "COc1ccc(OC)c(S(=O)(=O)Oc2ccc(C3(c4ccc(F)c(-c5cncnc5)c4)N=C(N)N(C)C3=O)cc2)c1 (stereo not shown)", "IC50 / nM": 183}
{"molecule": "CN1C(=O)C(c2cccc(OS(=O)(=O)c3ccc(-n4cccn4)cc3)c2)(c2ccc(F)c(-c3cncnc3)c2)N=C1N (stereo not shown)", "IC50 / nM": 46}
{"molecule": "CCC(C)(C)c1ccc(S(=O)(=O)Oc2ccc(C3(c4ccc(F)c(-c5cncnc5)c4)N=C(N)N(C)C3=O)cc2)cc1 (stereo not shown)", "IC50 / nM": 183}

# value lookup — system human β-Secretase (soluble part, AA1-AA460; sBACE-Fc) (Homo sapiens, UniProt P56817), readout IC50, item CN1C(=O)C(c2cccc(OS(=O)(=O)N(C)C)c2)(c2ccc(F)c(-c3cccnc3F)c2)N=C1N (stereo not shown) 114

# value lookup — system human β-Secretase (soluble part, AA1-AA460; sBACE-Fc) (Homo sapiens, UniProt P56817), readout IC50, item CN1C(=O)C(c2cccc(OS(C)(=O)=O)c2)(c2ccc(F)c(C3=CCCC3)c2)N=C1N (stereo not shown) [Example 194, methanesulfonate hydrochloride] 284
